Tested on: THRa:RXRa (NR concentration 90 nM, RXRa partner concentration 90 nM)
Assay: PBM binding z-score (relative to random genomic background probes); higher = stronger binding; sequences stand for … in GC…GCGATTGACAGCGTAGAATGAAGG
Would you mind telling me the reported PBM binding z-score of each entry?
Numbers only.

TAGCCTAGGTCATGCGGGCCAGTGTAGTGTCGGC : 2.99
TCTGCGAGGTCAGTTGGTCAGCTAACGAGCTGCC : 3.22
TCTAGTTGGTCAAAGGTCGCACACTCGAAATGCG : 2.48
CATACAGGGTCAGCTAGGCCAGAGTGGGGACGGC : 3.12
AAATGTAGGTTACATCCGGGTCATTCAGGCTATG : 3.67

List the reported PBM binding z-score of each sequence below.
1. TAGCCTAGGTCATGAGCCAGTATACCACGCGAAC
2. AGAATGAGGTTATACGTAGATCAGGGAGGAAAGT
3. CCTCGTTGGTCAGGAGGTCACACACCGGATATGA
4. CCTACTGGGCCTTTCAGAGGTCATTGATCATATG
5. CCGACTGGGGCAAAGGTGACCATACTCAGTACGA
6. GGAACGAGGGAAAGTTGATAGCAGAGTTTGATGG
7. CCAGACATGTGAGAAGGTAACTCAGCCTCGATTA

Result:
1. 2.97
2. 2.24
3. 3.54
4. 3.04
5. 0.896
6. -0.351
7. -0.0389

###

System: RARb homodimer (NR concentration 270 nM)
Test: PBM binding z-score (relative to random genomic background probes); higher = stronger binding; sequences stand for … in GC…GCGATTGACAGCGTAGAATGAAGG
recorded_metric: PBM binding z-score
Give bare numbers.

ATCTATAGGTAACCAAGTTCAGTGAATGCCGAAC : 1.42
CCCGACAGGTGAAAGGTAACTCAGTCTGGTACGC : 0.903
TCTTGTAGATCAATAGAGGTTAAGATAGTGCGCT : 1.21
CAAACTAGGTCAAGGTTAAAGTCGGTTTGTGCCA : 3.76
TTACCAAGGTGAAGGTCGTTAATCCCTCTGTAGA : 1.62
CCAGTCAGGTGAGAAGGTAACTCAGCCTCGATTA : 0.469
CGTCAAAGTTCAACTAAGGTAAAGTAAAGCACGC : 3.97
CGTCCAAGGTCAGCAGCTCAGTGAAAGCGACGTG : 3.86

List the reported PBM binding z-score of each sequence below.
1. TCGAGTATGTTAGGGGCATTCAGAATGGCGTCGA
2. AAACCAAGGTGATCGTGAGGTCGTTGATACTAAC
3. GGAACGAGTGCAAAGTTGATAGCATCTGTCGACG
4. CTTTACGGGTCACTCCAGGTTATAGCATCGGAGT
5. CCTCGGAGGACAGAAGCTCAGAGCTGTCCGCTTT
6. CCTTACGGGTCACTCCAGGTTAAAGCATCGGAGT
7. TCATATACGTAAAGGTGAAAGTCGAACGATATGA

Result:
0.285
1.41
-0.159
3.36
-0.763
3.23
1.53

List the reported PBM binding z-score of each sequence below.
1. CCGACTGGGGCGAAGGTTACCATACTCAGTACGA
2. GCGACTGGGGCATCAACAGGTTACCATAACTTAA

Result:
0.751
1.25

List the reported PBM binding z-score of each sequence below.
1. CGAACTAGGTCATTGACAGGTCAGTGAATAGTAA
2. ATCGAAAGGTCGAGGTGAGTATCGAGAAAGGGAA
3. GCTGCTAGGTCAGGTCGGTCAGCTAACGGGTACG
4. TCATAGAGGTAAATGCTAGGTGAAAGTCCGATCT
5. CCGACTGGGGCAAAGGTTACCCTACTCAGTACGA
6. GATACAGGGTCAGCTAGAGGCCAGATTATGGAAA
7. CCTAGCAGGCCAATCTGGCTCACTCAAGGCTTGA
8. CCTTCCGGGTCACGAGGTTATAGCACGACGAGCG

Result:
1. 4.18
2. 2.53
3. 3.44
4. 0.335
5. 1.96
6. 3.59
7. -0.747
8. 4.02

###

Tested on: THRa homodimer (NR concentration 90 nM)
Assay: PBM binding z-score (relative to random genomic background probes); higher = stronger binding; sequences stand for … in GC…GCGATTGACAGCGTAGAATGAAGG
recorded_metric: PBM binding z-score

Here is how some sequences turned out for PBM binding z-score.
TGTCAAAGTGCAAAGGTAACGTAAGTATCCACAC : -0.723
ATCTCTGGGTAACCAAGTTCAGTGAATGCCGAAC : 0.335
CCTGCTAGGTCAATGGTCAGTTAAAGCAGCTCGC : 0.961

Turning now to a further sequence:
Reported PBM binding z-score of `CCTACTGGCCCATTCAGAGGTCATTGATCATATG` : 1.71

###

Test system: RARa homodimer (NR concentration 270 nM)
Experiment: PBM binding z-score (relative to random genomic background probes); higher = stronger binding; sequences stand for … in GC…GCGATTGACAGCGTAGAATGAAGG
recorded_metric: PBM binding z-score

Here is how some sequences turned out for PBM binding z-score.
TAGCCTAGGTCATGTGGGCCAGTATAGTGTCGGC : -0.278
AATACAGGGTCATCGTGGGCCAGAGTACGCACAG : 0.514
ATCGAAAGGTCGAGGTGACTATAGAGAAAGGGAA : 0.636
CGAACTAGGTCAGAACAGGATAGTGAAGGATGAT : 0.743

Turning now to a further sequence:
Reported PBM binding z-score of `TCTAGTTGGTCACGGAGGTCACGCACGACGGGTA` : 1.73

###

Tested on: LXRb homodimer (NR concentration 270 nM)
Assay: PBM binding z-score (relative to random genomic background probes); higher = stronger binding; sequences stand for … in GC…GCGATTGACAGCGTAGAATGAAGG
Would you mind telling me the reported PBM binding z-score of each entry?
Answers are plain numbers.

Here is how some sequences turned out for PBM binding z-score.
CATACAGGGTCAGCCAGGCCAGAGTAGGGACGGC : 0.282
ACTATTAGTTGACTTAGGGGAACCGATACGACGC : 1.27
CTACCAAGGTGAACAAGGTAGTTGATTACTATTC : -0.774
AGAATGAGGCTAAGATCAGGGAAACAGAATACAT : -0.737
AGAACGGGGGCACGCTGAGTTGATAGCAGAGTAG : 6.59

List the reported PBM binding z-score of each sequence below.
1. TAGCCTAGGTCATTGGGCCAGTAAAGTACGCATC
2. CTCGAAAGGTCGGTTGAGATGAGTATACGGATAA
3. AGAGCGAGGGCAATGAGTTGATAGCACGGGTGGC
4. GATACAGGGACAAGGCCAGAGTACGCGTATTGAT
5. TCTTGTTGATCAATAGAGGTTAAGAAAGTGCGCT
6. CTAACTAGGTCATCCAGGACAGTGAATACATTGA
7. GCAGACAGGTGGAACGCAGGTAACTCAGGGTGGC

Result:
[0.0341, -0.0369, -0.845, -0.748, 0.134, 0.444, -1.13]

List the reported PBM binding z-score of each sequence below.
1. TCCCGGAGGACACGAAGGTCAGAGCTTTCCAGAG
2. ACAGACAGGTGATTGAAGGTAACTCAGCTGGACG
3. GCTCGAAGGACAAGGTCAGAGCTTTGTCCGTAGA
4. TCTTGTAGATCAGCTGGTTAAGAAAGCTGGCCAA
5. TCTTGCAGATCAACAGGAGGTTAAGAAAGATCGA

Result:
1: -1.26; 2: -0.457; 3: -0.575; 4: -0.836; 5: -0.645

List the reported PBM binding z-score of each sequence below.
1. GCATATAGGTAATACAAAGTGAAAGTCCGATTGT
2. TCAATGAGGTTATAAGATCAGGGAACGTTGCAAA
3. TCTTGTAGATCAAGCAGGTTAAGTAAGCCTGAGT
4. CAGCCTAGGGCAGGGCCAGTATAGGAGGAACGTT
5. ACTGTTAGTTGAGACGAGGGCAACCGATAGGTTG
6. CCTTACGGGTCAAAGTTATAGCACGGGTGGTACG
7. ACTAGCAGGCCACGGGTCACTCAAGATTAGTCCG

Result:
1: -0.361; 2: -0.169; 3: -0.426; 4: -1.4; 5: 0.747; 6: 0.711; 7: -0.734

List the reported PBM binding z-score of each sequence below.
1. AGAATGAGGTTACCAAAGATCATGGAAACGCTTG
2. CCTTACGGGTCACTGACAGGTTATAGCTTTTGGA

Result:
1: -0.29; 2: -0.0774
